Target: full-length beta-Catenin (Uniprot ID P35222) (Homo sapiens, UniProt P35222)
Construct: 10 nM full-length beta-Catenin (Uniprot ID P35222)
Sequence (P35222 whole entry): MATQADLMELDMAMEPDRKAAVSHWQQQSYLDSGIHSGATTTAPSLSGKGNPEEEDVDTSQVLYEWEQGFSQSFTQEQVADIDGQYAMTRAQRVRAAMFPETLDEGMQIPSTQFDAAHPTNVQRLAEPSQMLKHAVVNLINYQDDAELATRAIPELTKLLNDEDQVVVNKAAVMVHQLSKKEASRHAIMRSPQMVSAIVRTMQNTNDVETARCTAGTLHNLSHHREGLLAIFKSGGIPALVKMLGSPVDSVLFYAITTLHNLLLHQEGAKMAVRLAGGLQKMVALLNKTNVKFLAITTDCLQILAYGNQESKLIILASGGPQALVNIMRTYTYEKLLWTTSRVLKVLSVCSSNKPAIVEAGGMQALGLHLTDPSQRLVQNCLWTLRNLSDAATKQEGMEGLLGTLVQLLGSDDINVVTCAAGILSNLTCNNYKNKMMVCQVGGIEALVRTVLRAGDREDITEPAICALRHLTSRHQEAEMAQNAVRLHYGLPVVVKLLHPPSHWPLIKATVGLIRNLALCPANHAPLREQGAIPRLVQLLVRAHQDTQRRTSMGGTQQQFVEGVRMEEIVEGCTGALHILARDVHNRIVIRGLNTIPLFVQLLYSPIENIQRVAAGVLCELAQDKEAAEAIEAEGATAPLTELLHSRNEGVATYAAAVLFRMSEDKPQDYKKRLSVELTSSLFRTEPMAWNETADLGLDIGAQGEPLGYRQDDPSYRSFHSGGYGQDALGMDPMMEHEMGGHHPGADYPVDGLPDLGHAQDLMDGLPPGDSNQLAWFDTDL
Assay: Fluorescence polarization IC50 (beta-catenin / 5FAM-TCF4 10-53 competition)
Assay type: binding
Details: fluorescence polarization; read-out: beta-Catenin FP IC50
Give IC50 for every item shown.
Output spec: scalar in nM, unitless text.

Problem: Return IC50 (reported value) for this molecule: CCC(C)N(CC(=O)O)C[C@@H]1NC(=O)[C@H](CC(=O)O)NC(=O)C2(CCCC=CCCCOC(=O)N3CC[C@@](C(=O)N[C@@H](Cc4ccccc4Cl)C(=O)N[C@@H](Cc4csc5ccccc45)C(=O)N[C@@H](CCC(N)=O)C(N)=O)(C3)NC(=O)[C@H](CC(N)=O)NC(=O)[C@H](Cc3ccccc3)NC(=O)[C@H](C)NC(=O)[C@H](C)NC1=O)CCCC=CC[C@]1(CCCN1C(C)=O)C(=O)N[C@@H](CC(=O)O)C(=O)N[C@@H](CC(C)(C)C)C(=O)N2 (some centres unmarked) [I-1623]
Result: 30

Problem: Return IC50 (reported value) for this molecule: CCSSCCOC(=O)C[C@@H]1NC(=O)[C@H](CC(=O)O)NC(=O)C2(CCCC=CCCCOC(=O)N3CC[C@@](C(=O)N[C@@H](Cc4ccsc4)C(=O)N[C@@H](Cc4csc5ccccc45)C(=O)N[C@@H](CCC(N)=O)C(N)=O)(C3)NC(=O)[C@H](CC(C)C)NC(=O)[C@H](Cc3ccccc3)NC(=O)[C@H](C)NC(=O)[C@H](C)NC1=O)CCCC=CC[C@]1(CCCN1C(C)=O)C(=O)N[C@@H](CC(=O)O)C(=O)N[C@@H](CC(C)(C)C)C(=O)N2 (some centres unmarked) [I-1965]
Result: 633

----------
Experiment: CHI Log D procedure
Type: physicochemical
Details: pH 7.4, CHI Log D
measure: chromatographic logD
Reply with just the number.

Problem: Return chromatographic logD (reported value) for this molecule: CC(=O)N1CCC[C@]12CC=CCCCC1(CCCC=CCCCCCC[C@@](C)(C(=O)N[C@@H](Cc3ccc(F)cc3)C(=O)N[C@@H](Cc3c[nH]c4ccccc34)C(=O)N[C@@H](CCC(N)=O)C(N)=O)NC(=O)[C@H](C(C)C)NC(=O)[C@H](Cc3ccccc3)NC(=O)[C@H](C)NC(=O)[C@H](C)NC(=O)[C@H](CC(=O)O)NC(=O)[C@H](CC(=O)O)NC1=O)NC(=O)[C@H](C)NC(=O)[C@H](CC(=O)O)NC2=O (some centres unmarked)
Result: 2.01

Problem: Return chromatographic logD (reported value) for this molecule: CC(=O)N1CCC[C@]12CC=CCCCC1(CCCC=CCCCCCC[C@@](C)(C(=O)N[C@@H](Cc3ccccc3Cl)C(=O)N[C@@H](Cc3csc4ccccc34)C(=O)N[C@@H](CCC(N)=O)C(N)=O)NC(=O)[C@H](CC(N)=O)NC(=O)[C@H](Cc3ccccc3)NC(=O)[C@H](C)NC(=O)[C@H](C)NC(=O)[C@H](CN(CC(=O)O)CC(F)(F)F)NC(=O)[C@H](CC(=O)O)NC1=O)NC(=O)[C@H](CC(C)(C)C)NC(=O)[C@H](CC(=O)O)NC2=O (some centres unmarked)
Result: 2.74

Problem: Return chromatographic logD (reported value) for this molecule: CC[C@H](C)[C@H](NC(=O)[C@H](CC(=O)O)NC(=O)[C@H](C)NC(C)=O)C(=O)N[C@]1(C)CCN(C)C(=O)OCC=CCCCCC[C@@](C)(C(=O)N[C@@H](Cc2ccccc2)C(=O)N[C@@H](Cc2c[nH]c3ccccc23)C(=O)N[C@@H](Cc2c[nH]cn2)C(N)=O)NC(=O)[C@H](CCC(N)=O)NC(=O)[C@H](Cc2ccccc2)NC(=O)[C@H](C)NC(=O)[C@H](C)NC(=O)[C@H](CC2CCCCC2)NC(=O)[C@H](CC(=O)O)NC1=O (single isomer, unassigned)
Result: 1.72

Problem: Return chromatographic logD (reported value) for this molecule: CC(=O)N1CCC[C@]12CC=CCCCC1(CCCC=CCCCCCC[C@@](C)(C(=O)N[C@@H](Cc3ccccc3)C(=O)N[C@@H](Cc3csc4ccccc34)C(=O)N[C@@H](CCC(N)=O)C(N)=O)NC(=O)[C@H](C(C)C)NC(=O)[C@H](Cc3ccccc3)NC(=O)[C@H](C)NC(=O)[C@H](C)NC(=O)[C@H](Cc3ccc4ccccc4n3)NC(=O)[C@H](CC(=O)O)NC1=O)NC(=O)[C@H](C)NC(=O)[C@H](CC(=O)O)NC2=O (some centres unmarked)
Result: 2.82

Problem: Return chromatographic logD (reported value) for this molecule: CC(=O)N[C@@H](Cc1ccccc1)C(=O)N[C@@H](CC(=O)O)C(=O)N[C@@H](C)C(=O)N[C@]1(C)CCCCC=CCOC(=O)N(C)CCC[C@@](C)(C(=O)N[C@@H](Cc2ccccc2)C(=O)N[C@@H](Cc2c[nH]c3ccccc23)C(=O)N[C@@H](CCC(N)=O)C(N)=O)NC(=O)[C@H](C(C)C)NC(=O)[C@H](Cc2ccccc2)NC(=O)[C@H](C)NC(=O)[C@H](C)NC(=O)[C@H](CC(=O)O)NC(=O)[C@H](CC(=O)O)NC1=O
Result: 1.25
